Test: protein stability index of a GFP-peptide fusion (yeast GPS) (PSI 1-4); higher = more stable; sorted into four equal gates, so the index is relative within each strain
Conditions: ubr1∆
Could you please report measured protein stability index for the items listed next?
Give bare numbers.

The following sequences have reported results that may help.
SEQUENCE: LAANYLNIKPLLDAGCK [SKP1]
protein stability index: 2.23

SEQUENCE: QSSSSTRSHEYGRKSFR [REC8]
protein stability index: 3.2

SEQUENCE: LLFINSSKLVDVYTLPS [YML103C/NUP188]
protein stability index: 2.01

Hey, can you go through the list below and give me protein stability index for every item?
1. EILVTELTAQGYDPALL [RPN2]
2. HYLFNTFTFTAHMGVLL [SWP82]
3. YRSHIFATNEERQMNFL [SWI3]
4. LARDTPSANNSSSIKST [RRP4]
5. ENDIIKLSDSKTSNIES [BRR2]

**A:**
3.28
1.51
2.72
3.14
3.09

The reported protein stability index of the sequence PYDSNNSNTNLNSLSPQ [SWI1] was 2.79

----------
Could you please report measured protein stability index for the items listed next?
Assay: protein stability index of a GFP-peptide fusion (yeast GPS) (PSI 1-4); higher = more stable; sorted into four equal gates, so the index is relative within each strain
Details: pdr5∆
Numbers only.

The following sequences have reported results that may help.
SEQUENCE: LEKDAADCQAELTKTKS [YIL149C/MLP2]
protein stability index: 2.76
//
SEQUENCE: ILYEIRALYTPFLLMEL [YDL116W/NUP84]
protein stability index: 2.93
//
SEQUENCE: LGSHSSSQKDGNDFKFN [REC8]
protein stability index: 3.24

Hey, can you go through the list below and give me protein stability index for every item?
1. IADSTHVKRITKIAQSQ [ECM29]
2. LVSVVEAFIASGITDPY [FAS2]

**A:**
1.71
1.39

Hey, can you go through the list below and give me protein stability index for every item?
1. KKDIKIGTNDLFQVESA [SIR4]
2. YLLTQQQIWKSPNFKNY [SOH1]
3. RGFFHLNEALLQCPMLY [CSN12]
4. EINSEDYDNKTKLIGVL [SRP68]
5. KLYKKIAKFERSEEEVT [YIL149C/MLP2]
6. RAKSCGVDAMSVDDLKK [RPL1A]
7. STNEDQNNSKHTEDTVN [SRB5]
8. NKYQYSLKQYAGNLITT [SRP68]

**A:**
1. 3.22
2. 1.62
3. 2.2
4. 3.04
5. 3.19
6. 2.41
7. 2.1
8. 1.44

Hey, can you go through the list below and give me protein stability index for every item?
1. VEKRIGKIVSQRGKWNL [RGR1]
2. EDVDDEELDITPLFPID [IRR1]
3. IDAALDKQYRTAVATLL [SMC3]
4. VTPNDKIPEREEKSNEV [SIR4]
5. ILDGLTVRLVNLFSSTG [SRB2]
6. HISKIIGLDTQQVEGKL [RPN6]
7. EDDNTPAGHAGNPTNIS [YDL088C/ASM4]

**A:**
2.96
3.36
2.17
3.16
3.03
3.43
2.88

----------
Assay: protein stability index of a GFP-peptide fusion (yeast GPS) (PSI 1-4); higher = more stable; sorted into four equal gates, so the index is relative within each strain
Conditions: san1∆
Could you please report measured protein stability index for the items listed next?

The following sequences have reported results that may help.
SEQUENCE: TTPKKIKHKHKKVKLAV [RPS31]
protein stability index: 1.34
--
SEQUENCE: LTTAREHHSSVKYASPN [FAS2]
protein stability index: 3.04
--
SEQUENCE: AGYTTHLMKRIQKGPVR [RPS17A]
protein stability index: 1.86
--
SEQUENCE: MGLGKTLQTISFLGYLR [ISW2]
protein stability index: 1.67
--
SEQUENCE: RGGFGGRNRGRPNRRGP [RPS2]
protein stability index: 3.44
--
SEQUENCE: LMAQIFFGPTYYQRLRH [RPB2]
protein stability index: 2.08
--
SEQUENCE: EEASQLIEYMENDAKKS [NUT1]
protein stability index: 3.15
--
SEQUENCE: LKMMKLIVDTHVQFRLG [PRP8]
protein stability index: 2.56
--
SEQUENCE: RQQKLLLETKLRQQYEI [SWI1]
protein stability index: 3.17
--
SEQUENCE: GEFSGKNFSPTKRVEKP [RRP6]
protein stability index: 2.54

Hey, can you go through the list below and give me protein stability index for every item?
1. PNVDLVTALEVLSLGRP [RGR1]
2. HILFQNNPDMMIQPPQQ [ROX3]
3. IEAEEAEEIGVEHLLRD [RPN8]
4. EKLLKELENNEFTENEL [ITC1]
5. RDVYVFDKVEVQVRSVM [DIS3]
6. IVKVFHGAFMDIIWLQR [RRP6]

**A:**
2.47
3.06
3.15
3.33
3.33
1.32

Hey, can you go through the list below and give me protein stability index for every item?
1. VTDSSLLKLLTRLVQLR [GRR1]
2. SMSGRISAKDMGQGLCN [BRR2]
3. KEPRLVIVTDPRSDAQA [RPS0A]
4. TETKRLVVIRFGRKNDR [DIB1]
5. KRYANHTQDIIGGMRVD [RET1]
6. QQQQQQNNSTGSSSIIY [SSN2]
7. MLPPKSVKFTHIAHTLP [SSN2]
8. TRKSLNNAVRFSKQCLI [ECM29]

**A:**
[2.41, 3.02, 2.94, 2.03, 3.19, 2.69, 2.05, 2.42]

Hey, can you go through the list below and give me protein stability index for every item?
1. QNGQQPPTTSNLIIFLY [YML103C/NUP188]
2. VPRAALEERFDPKSPTK [YMR129W/POM152]
3. YSPSNEISISFDVNNID [YDL116W/NUP84]
4. AHVFVGTCNGDITTSIM [RPN1]
5. VDLTSSNFADSADYEIL [YDL116W/NUP84]
6. RNMAEEFEYDDEPDEQG [CYT1]

**A:**
1: 2.94; 2: 3.01; 3: 2.31; 4: 2.63; 5: 3.31; 6: 3.17

Hey, can you go through the list below and give me protein stability index for every item?
1. NALTVGDFDKFDSLIKV [RPN9]
2. QPHIFNNPKVKTSKRTK [RPS11A]
3. RPKKVKLEGSENSEPPA [SNF2]
4. DEINTAQDKWHLLPAFL [RET1]

**A:**
1. 1.3
2. 2.98
3. 3.33
4. 3.29

----------
Experiment: protein stability index of a GFP-peptide fusion (yeast GPS) (PSI 1-4); higher = more stable; sorted into four equal gates, so the index is relative within each strain
Settings: san1∆
ASSAY_ENDPOINT: protein stability index
Give bare numbers.

The following sequences have reported results that may help.
SEQUENCE: EKDAVSVFGFRTQFGGG [RPS24A]
protein stability index: 2
--
SEQUENCE: ALIDAGISMFDYISGIS [SKI6]
protein stability index: 2.3
--
SEQUENCE: PVVINLDAKNKVFVPPK [RPO31]
protein stability index: 3.33
--
SEQUENCE: STKRVTKHPSLKTLTHK [POP7]
protein stability index: 2.56
--
SEQUENCE: QFQKARNNVMLLIATNL [SRB8]
protein stability index: 2.24

Hey, can you go through the list below and give me protein stability index for every item?
1. DLFTHLWNQWLKLNTSL [SRP68]
2. VTSKVRNAEFKVSKNST [YMR153W/NUP53]
3. TCSSDQHIKVFKLDKDT [YGL100W/SEH1]
4. VAAKWNTSLISLFTYFR [PRP8]
5. ATTGGGLFGNKPNNTAN [YGL172W/NUP49]
6. FGAKMSRTLILSILNEI [SIN4]

**A:**
[2.27, 2.98, 3.46, 1.74, 3.66, 1.36]

----------
Assay: protein stability index of a GFP-peptide fusion (yeast GPS) (PSI 1-4); higher = more stable; sorted into four equal gates, so the index is relative within each strain
Conditions: san1∆
ASSAY_ENDPOINT: protein stability index
Give bare numbers.

The following sequences have reported results that may help.
SEQUENCE: RSNFRVNLSQEALQYDP [SNU114]
READOUT_NUMBER: 2.93

SEQUENCE: SKIIVFPRNGKAPEAEQ [RPL13A]
READOUT_NUMBER: 3.06

SEQUENCE: KDSYVRIANIEQNHLDN [YDL088C/ASM4]
READOUT_NUMBER: 3.05

SEQUENCE: DPQHKAIRRDARYNWIC [RPL15A]
READOUT_NUMBER: 2.92

SEQUENCE: KLRRECSNPTCGAGVFL [RPS31]
READOUT_NUMBER: 2.11

SEQUENCE: MAMNITPRLYTDRSRDF [RPB2]
READOUT_NUMBER: 2.96

SEQUENCE: AHFLSLSFTPTTVIGIR [RPN2]
READOUT_NUMBER: 1.28

SEQUENCE: ALRGMFKDRFKDEPVQN [FAS2]
READOUT_NUMBER: 3.35

Hey, can you go through the list below and give me protein stability index for every item?
1. FLSSFDDVLQTIITDCA [YJL039C/NUP192]
2. SHVNKYGLIRGLKFASF [PRP8]
3. TCVSMAPIQLKIDLLSG [RGR1]
4. IEWAEHHRDSNFPDEDD [SKP1]
5. NSISSQPASYHSVQETN [SSN2]
6. KGGIIASVGDILKTLER [YML031W/NDC1]
7. RVIVAGTLDINPDDDYG [FAS1]
8. LVASAKGLQTVVVEEDA [RPL31A]

**A:**
[2.03, 1.91, 1.87, 3.08, 2.88, 3.32, 2.85, 2.54]

Hey, can you go through the list below and give me protein stability index for every item?
1. KVCECVCMHCGKLLLDE [RPO21]
2. AICRYANVIKALAFCEI [RRP4]
3. LQQELATTQDQVASIIE [NUT2]
4. DFILSLLHHVSELDSND [YJL039C/NUP192]
5. KDVKARIAAGDGDDDDE [QCR9]
6. PVSLLNSQLVGKPHFSL [PCI8]
7. PEIPLVVSTDLESIQKT [RPL4A]
8. EITDASLNLQYVNYEIS [YML103C/NUP188]

**A:**
2.88
1.66
3.23
1.42
2.12
1.88
3.16
2.31

Hey, can you go through the list below and give me protein stability index for every item?
1. ITQMRVNDEEEHKQLVA [RPC82]
2. TSSIFQESFNSVQNLDQ [NUT1]

**A:**
1. 2.82
2. 2.98

Hey, can you go through the list below and give me protein stability index for every item?
1. KSAENIIKMTIPYAAKL [RET1]
2. SLEALIDLCHDFPHLTP [YCS4]

**A:**
2.89
2.56
